These data points were gathered from paper PMC3975428.

Target: T1, human neuropeptide Y Y2 receptor expressed in CHO cells (human, UniProt P49146 1-381)
T1 construct: neuropeptide Y receptor type 2 (Y2), human cDNA in pcDNA 3.1+; Assayed in particulates (membranes) of the cells and in digitonin/cholate lysates of them; also called hY2 receptor; CHO-Y2; source: CHO-K1, stably expressed (cDNA in pcDNA 3.1+), postnuclear particulates, solubilised with digitonin and cholate
T1 sequence (looked up): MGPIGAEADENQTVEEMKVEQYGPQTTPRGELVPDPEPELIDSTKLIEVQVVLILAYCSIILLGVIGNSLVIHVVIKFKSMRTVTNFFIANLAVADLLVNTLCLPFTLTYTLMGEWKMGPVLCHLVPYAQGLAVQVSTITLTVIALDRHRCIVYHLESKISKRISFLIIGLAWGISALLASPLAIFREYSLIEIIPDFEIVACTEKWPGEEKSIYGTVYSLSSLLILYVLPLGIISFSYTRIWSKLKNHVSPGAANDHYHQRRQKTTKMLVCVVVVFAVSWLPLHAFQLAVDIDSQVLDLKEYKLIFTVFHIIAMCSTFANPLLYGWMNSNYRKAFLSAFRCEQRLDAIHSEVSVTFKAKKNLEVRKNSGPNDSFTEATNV
Assay: radioligand binding; competition against [125I]PYY(3–36) at the hY2 receptor; conditions not given
Details: one partner purified
pKd: −log10 of the molar value.
test_readout: pKd

- SALRHYINLITRQRY (peptide, UniProt P01303 50-64, looked up, neuropeptide Y, residues 22-36; also called neuropeptide Y(22–36)) [NPY(22–36)]: 8.21
